Test: Cell viability via live cell imaging (IncuCyte), Huh7.5
Settings: human, huh7.5 cells
Assay Metric: CC50 at 72 h (µM)
Dear colleague, please return just the value in µM, with no unit written.

Please report CC50 at 72 h for the following compound: COc1[nH]c(=O)c(C(=O)[C@@H](C)C[C@H](C)[C@@H](Cl)CCl)c(O)c1OC
65

----------
Assay: in vitro
Assay type: cell-based
Details: human; Calu-3 cells; 72h; read-out: CC50 (CTG)
Assay Metric: CC50 at 72 h (µM)
Dear colleague, please return just the value in µM, with no unit written.

Please report CC50 at 72 h for the following molecule: COc1[nH]c(=O)c(C(=O)[C@@H](C)C[C@H](C)[C@@H](Cl)CCl)c(O)c1OC [Atpenin A5, atpenin A5]
0.86

----------
System: Calu-3 cells
Details: read-out: CC50 (IncuCyte), confluency every 3 hours for 72h, 4320 min
Assay Metric: CC50

Please report CC50 for the following molecule: COc1[nH]c(=O)c(C(=O)[C@@H](C)C[C@H](C)[C@@H](Cl)CCl)c(O)c1OC
> 80 µM

----------
Assay: in vitro
Type: cell-based
Details: human; Huh7.5 cells; 72h; read-out: CC50 (CTG)
Assay Metric: CC50 at 72 h (µM)
Dear colleague, please return just the value in µM, with no unit written.

Please report CC50 at 72 h for the following molecule: COc1[nH]c(=O)c(C(=O)[C@@H](C)C[C@H](C)[C@@H](Cl)CCl)c(O)c1OC
62

----------
Experiment: in vitro
Format: cell-based
Details: human, huh7.5 cells
Description: The old cell media was then discarded, and cells were washed with PBS. 35 µl DMEM-Media and 35 µl CellTiterGlow® reagent (#G7571, Promega) were added and incubated for 2 minutes on an orbital shaker protected from light. […] 50 µl of the supernatant was transferred to a white 96 well measure plate and measured by Berthold TriStar2 S Multimode Reader. The background signal was determined by the luminescent signal of the positive control subtracted from the values used for analysis. […]
Assay Metric: CC50 at 72 h

Please report CC50 at 72 h for the following compound: [H]/N=C(/N)N/C(=N/[H])NCCc1ccccc1 [Phenformin]
> 2000 nM

----------
Assay: in vitro
Format: cell-based
Conditions: human, calu-3 cells
Assay Metric: CC50 at 72 h

Please report CC50 at 72 h for the following molecule: [H]/N=C(/N)N/C(=N/[H])NCCc1ccccc1
> 2000 nM

----------
Assay: in vitro
Conditions: human, calu-3 cells, CC50 (IncuCyte), confluency every 3 hours for 72h
Assay Metric: CC50 at 72 h

Please report CC50 at 72 h for the following compound: COc1[nH]c(=O)c(C(=O)[C@@H](C)C[C@H](C)[C@@H](Cl)CCl)c(O)c1OC
> 160 µM

----------
Assay: in vitro
Type: cell-based
Conditions: human, caco-2
Assay Metric: CC50 at 72 h

Please report CC50 at 72 h for the following compound: [H]/N=C(/N)N/C(=N/[H])NCCc1ccccc1 [Phenformin]
> 2 µM

----------
Tested on: Huh7.5 cells
Assay: CC50 calculation, MTT assay, Huh7.5
Assay type: cell-based
Conditions: 72h, 4320 min
Experimental: The cells were treated with drug candidates at the indicated concentrations. Negative control (non-treated), DMSO control and positive control (100% DMSO treated) were added, and plates were then stored at 37 °C, 5 % CO2 for 72h. […] Absorption levels at 570 nm and 650 nm wavelength were measured by Berthold TriStar2 S Multimode Reader and values were normalized to non-treated cells. CC50 was calculated as the half-maximal cytotoxic dose via GraphPad Prism 9 using four-parameter nonlinear regression. […]
Assay Metric: CC50
Numeric answer plus unit only.

Please report CC50 for the following molecule: [H]/N=C(/N)N/C(=N/[H])NCCc1ccccc1 [Phenformin]
61.2 µM
